Molecular target: UniProt Q86WV6
Sequence (Q86WV6 whole entry, looked up): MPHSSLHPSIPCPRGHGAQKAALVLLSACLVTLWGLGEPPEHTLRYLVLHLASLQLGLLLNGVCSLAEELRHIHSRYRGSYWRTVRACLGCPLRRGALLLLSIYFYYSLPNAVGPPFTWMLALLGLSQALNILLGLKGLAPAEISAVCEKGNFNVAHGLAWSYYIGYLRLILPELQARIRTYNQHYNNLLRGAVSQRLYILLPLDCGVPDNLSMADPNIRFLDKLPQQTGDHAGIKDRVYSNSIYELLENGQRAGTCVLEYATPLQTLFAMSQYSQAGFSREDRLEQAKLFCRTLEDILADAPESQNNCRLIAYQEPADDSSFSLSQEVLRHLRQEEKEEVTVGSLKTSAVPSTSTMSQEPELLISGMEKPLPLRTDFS
Assay: Activation of human STING R232 variant transfected in HEK293T cells expressing ISRE.ISG54 luciferase reporter assessed as secretory reporter gene activity by measuring luciferase level incubated for 20 hrs by luminometer
pEC50: −log10 of the molar value.
Would you please tag the item y when its pEC50 is 6 or above, and n when it is below?

# molecule, class-assignment
measured = [
    ("CC1Sc2ccc(C(=O)NCc3c(F)cc(F)cc3F)cc2-n2c(Cc3ccccc3)nnc21 (racemic)", "n"),
    ("CC1Sc2ccc(C(=O)NCc3c(F)cc(F)cc3F)cc2-n2c(-c3ccc(Cl)cc3F)nnc21 (racemic)", "n"),
    ("CC1Sc2ccc(C(=O)NCc3cc4cc(F)ccc4o3)cc2-n2c(-c3ccc(F)cc3)nnc21 (racemic)", "y"),
    ("CC1Sc2ccc(C(=O)NCc3cc4cc(F)c(F)cc4o3)cc2-n2c(-c3ccc(F)cc3)nnc21 (racemic)", "y"),
    ("Cc1cccc(-c2nnc3n2-c2cc(C(=O)NCc4c(F)cc(F)cc4F)ccc2SC3C)c1 (racemic)", "n"),
    ("CC1Sc2ccc(C(=O)NCc3c(F)cc(F)cc3F)cc2-n2c(-c3ccncc3)nnc21 (racemic)", "n"),
    ("CC1Sc2ccc(C(=O)NCc3c(F)cc(F)cc3F)cc2-n2c(-c3ccc(F)cc3)nnc21 (racemic)", "y"),
    ("C[C@@H]1Sc2ccc(C(=O)NCc3cc4cc(F)ccc4o3)cc2-n2c(-c3ccc(F)cc3)nnc21", "y"),
    ("CC1Sc2ncc(C(=O)NCc3cc4cc(F)ccc4o3)cc2-n2c(-c3ccc(F)cc3)nnc21 (racemic)", "y"),
]
